test system: ATP; experiment: switch fluorescence ratio, 500 uM ATP over buffer (Cy3 cluster intensity, sum of 5 cycles each) (fold (ratio)); higher = stronger signal-on switching upon ATP binding; sequences stand for … in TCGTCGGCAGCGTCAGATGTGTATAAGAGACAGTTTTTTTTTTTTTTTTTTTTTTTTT…TC; settings: aptamer strand: ATP DNA aptamer (quencher-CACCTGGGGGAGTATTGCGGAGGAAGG + anchor), 100 nM annealed; ATP concentration: 500 uM;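 note: ATP exposure 15 min at 22 °C before imaging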
Parameter Measured: switch fluorescence ratio
Just the number.

Some sequences with known switch fluorescence ratio results, for comparison:
TTTTTTCTTC: 1.04
ACACTGCCGG: 1.04
CTTGTCGAGG: 0.986
ATTTTAAAGA: 1.01

Could you now look at the following sequence, please?
switch fluorescence ratio for ATP with input TTAAAAACCT equals 1.65
